# experimental_protocol: logP determination by HPLC on a reverse phase column (C18), EEC Directive 79/831 Annex V.A8
# Assay type: physicochemical
# cond: HPLC C18, 43° C., Table 1
measure_name: logP (pH 2.3)

[1] CCC(C)SC(C)c1ccccc1NC(=O)c1ccccc1Br (stereo not drawn) [compound 83]
[2] Cc1nn(C)c(F)c1C(=O)Nc1ccccc1C(C)S(=O)(=O)C(C)C (stereo not drawn) [compound 11]
[3] CC(C)OCc1ccccc1NC(=O)c1ccccc1C(F)(F)F [compound 54]
Request: Reorder the list: decreasing logP (pH 2.3). Would you mind listing the labels in the order asked for?
Result: 1, 3, 2

---

# experimental_protocol: logP determination by HPLC on a reverse phase column (C18), EEC Directive 79/831 Annex V.A8
# Type: physicochemical
# cond: HPLC C18, 43° C., Table 1
measure_name: logP (pH 2.3)

[1] CC(C)SC(C)c1ccccc1NC(=O)c1cn(C)nc1C(F)F (racemic)
[2] CCCC(C)SC(C)c1ccccc1NC(=O)c1ccccc1Cl (stereo not drawn)
Request: Given the listed records, identify the one among 1 and 2 with higher logP (pH 2.3). # answer = label of selected item
Result: 2
(2: 4.60, 1: 3.01)

---

# experimental_protocol: logP determination by HPLC on a reverse phase column (C18), EEC Directive 79/831 Annex V.A8
# Format: physicochemical
# cond: HPLC C18, 43° C., Table 1
measure_name: logP (pH 2.3)

Some entries whose results are on file:
molecule="CC(SC1CCCC1)c1ccccc1NC(=O)c1cn(C)nc1C(F)F (stereo not shown) [compound 101]" measure_name="logP (pH 2.3)" numeric_result=3.48
molecule="Cn1cc(C(=O)Nc2ccccc2CCO[Si](C)(C)C(C)(C)C)c(C(F)(F)F)n1 [compound 65]" measure_name="logP (pH 2.3)" numeric_result=4.59
molecule="Cc1nn(C)c(F)c1C(=O)Nc1ccccc1CCO [compound 63]" measure_name="logP (pH 2.3)" numeric_result=1.21
molecule="CC(C)S(=O)(=O)C(C)c1ccccc1NC(=O)c1ccccc1C(F)(F)F (stereo not shown) [Compound No. 6]" measure_name="logP (pH 2.3)" numeric_result=2.53

[I] Cc1nn(C)c(F)c1C(=O)Nc1ccccc1C(C)SC(C)C (stereo not shown) [compound 19]
[II] CCCC(C)SC(C)c1ccccc1NC(=O)c1ccccc1Br (stereo not shown) [compound 81]
Request: Input pair: I , II . Output: entry with lower logP (pH 2.3). # answer = label of selected item
Result: I
(I: 2.98, II: 4.63)

[A] CCC(C)SC(C)c1ccccc1NC(=O)c1ccccc1Cl (stereo not shown) [compound 73]
[B] Cn1cc(C(=O)Nc2ccccc2CCO)c(C(F)(F)F)n1 [compound 62]
Request: Input pair: A , B . Output: entry with lower logP (pH 2.3). # answer = label of selected item
Result: B
(B: 1.62, A: 4.17)

[P] CCC(C)SC(C)c1ccccc1NC(=O)c1cn(C)nc1C(F)F (stereo not shown) [compound 80]
[Q] CC(C)OC(C)c1ccccc1NC(=O)c1cn(C)cc1C(F)(F)F (stereo not shown) [compound 138]
Request: Input pair: P , Q . Output: entry with lower logP (pH 2.3). # answer = label of selected item
Result: P

---

# experimental_protocol: logP determination by HPLC on a reverse phase column (C18), EEC Directive 79/831 Annex V.A8
# Type: physicochemical
# cond: HPLC C18, 43° C., Table 1
measure_name: logP (pH 2.3)

compound="COC(C)c1cc(Cl)ccc1NC(=O)c1ccccc1C(F)(F)F (racemic) [compound 33]" numeric_result=3.56
compound="CC(C)SC(C)c1ccccc1NC(=O)c1ccccc1Br (racemic) [compound 26]" numeric_result=3.79
compound="CC(C)C(=O)OCc1ccccc1N(C(=O)c1cccnc1Cl)C(=O)C(C)C [compound 59]" numeric_result=3.49
compound="Cc1occc1C(=O)Nc1ccccc1C(C)SC1CCCC1 (stereo not drawn) [compound 91]" numeric_result=4.31
compound="Cc1ccccc1C(=O)Nc1ccccc1C(C)SC1CCCC1 (stereo not drawn) [compound 99]" numeric_result=4.44
compound="Cc1occc1C(=O)Nc1ccccc1C(C)OC(C)C (stereo not drawn) [compound 126]" numeric_result=3.80
compound="Cc1nn(C)c(F)c1C(=O)Nc1ccccc1CCO[Si](C)(C)C(C)(C)C [compound 69]" numeric_result=4.49
compound="CC(SC1CCCC1)c1ccccc1NC(=O)c1ccccc1Cl (stereo not drawn) [compound 92]" numeric_result=4.29
compound="CCCC(C)SC(C)c1ccccc1NC(=O)c1sc(C)nc1C(F)F (stereo not drawn) [compound 79]" numeric_result=4.36
compound="CCCC(C)SC(C)c1ccccc1NC(=O)c1cn(C)nc1C(F)F (stereo not drawn) [compound 85]" numeric_result=3.76
compound="CC1=C(C(=O)Nc2ccccc2C(C)OC(C)C)SCCO1 (stereo not drawn) [compound 128]" numeric_result=3.47
compound="CCCC(C)SC(C)c1ccccc1NC(=O)c1cn(C)nc1C(F)(F)F (mixture of isomers) [compound 42]" numeric_result=4.02
compound="Cc1nc(C(F)F)c(C(=O)Nc2ccccc2C(C)SC(C)C)s1 (racemic) [compound 29]" numeric_result=3.55
compound="CC(SC1CCCC1)c1ccccc1NC(=O)c1cn(C)nc1C(F)(F)F (stereo not drawn) [compound 96]" numeric_result=3.76
compound="Cc1sccc1C(=O)Nc1ccccc1C(C)SC1CCCC1 (stereo not drawn) [compound 90]" numeric_result=3.16
